Test system: A2780
Experiment: Cytotoxicity against human A2780 cells after 96 hrs by MTT assay
Type: functional, cell-based
Conditions: A2780, 96 h
measured-metric: pIC50
Units for pIC50: none; it is -log10 of a concentration expressed in mol/L.

>  <smi>
COC(=O)c1cc(-c2ccc(NC(=O)c3nc(NC(=O)CCCOc4cc5c(cc4OC)C(=O)N4CCC[C@H]4C=N5)cn3C)cc2)cn1C

>  <measurement-target>
A2780

>  <readout-value>
10.68

$$$$

Lookup: Please give measured pIC50 of the following entry: COC(=O)c1cc(NC(=O)c2cc(-c3ccc(NC(=O)CCCOc4cc5c(cc4OC)C(=O)N4CCC[C@H]4C=N5)cc3)cn2C)cn1C
Found: 9.02

Lookup: Please give measured pIC50 of the following entry: COC(=O)c1cc(NC(=O)c2cc(NC(=O)c3cc(-c4ccc(NC(=O)CCCOc5cc6c(cc5OC)C(=O)N5CCC[C@H]5C=N6)cc4)cn3C)cn2C)cn1C
Found: 9.62

Lookup: Please give measured pIC50 of the following entry: COC(=O)c1cc(NC(=O)c2cc(NC(=O)CCCOc3cc4c(cc3OC)C(=O)N3CCC[C@H]3C=N4)cn2C)cn1C
Found: 9.24

Lookup: Please give measured pIC50 of the following entry: COC(=O)c1cc(-c2ccc(NC(=O)c3cc(NC(=O)CCCOc4cc5c(cc4OC)C(=O)N4CCC[C@H]4C=N5)cn3C)cc2)cn1C
Found: 10.89
